Taken from paper PMC9482650.

Target: GIPC2, Q8TF65
Sequence (Q8TF65 112-203): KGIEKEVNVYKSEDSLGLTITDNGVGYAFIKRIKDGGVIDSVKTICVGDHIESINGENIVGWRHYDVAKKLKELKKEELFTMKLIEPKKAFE
Assay: holdup assay
Set-up: key: below the threshold = too weak to quantify, mostly under pKd 3.1 to 4
Conditions: plain residues with an end cap or a label only (N-terminal biotin on a linker: ado-ado)
QUANTITY NAME: pKd

> print(dat)
                       binder            obs.value
1  DDPSTAETVL [ABCA7, Q8IZY2]  below the threshold
2  YRLAQESGLV [ABCC6, O95255]  below the threshold
3  QGLAERISVL [PRKD2, Q9BZL6]  below the threshold
4  RKPKPSSSCC [RAB9A, P51151]                 3.73
